Molecular target: Interleukin-15 (Homo sapiens, UniProt P40933)
Sequence (P40933 whole entry): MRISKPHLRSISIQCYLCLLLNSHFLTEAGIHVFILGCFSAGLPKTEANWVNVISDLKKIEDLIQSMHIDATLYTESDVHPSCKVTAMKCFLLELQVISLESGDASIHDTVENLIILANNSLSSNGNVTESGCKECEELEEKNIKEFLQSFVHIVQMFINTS
Assay: Binding affinity to recombinant human IL-15 by SPR assay
pKd: −log10 of the molar value.
observation-type: pKd

Completed entries (count: 4):
Exercise: Would you kindly share the measured pKd for Cn1c(Cc2nn(C)c(=O)c3ccccc23)nnc1SCCCCCCCC(=O)Nc1ccc(Cl)cc1Cl ?
Key: 4.72

Exercise: Suppose we examine the compound CCOC(=O)c1cccc(NC(=O)CCCCCCCSc2nnc(Cc3nn(C)c(=O)c4ccccc34)n2C)c1 ; what pKd value has been reported?
Key: 4.66

Exercise: Given Cc1ccc(NC(=O)CCCCCCCSc2nnc(Cc3nn(C)c(=O)c4ccccc34)n2C)c(Cl)c1 , state its recorded pKd.
Key: 4.62

Exercise: Form field: reported pKd of COc1ccc(NC(=O)CCCCCCCSc2nnc(Cc3nn(C)c(=O)c4ccccc34)n2C)c(O)c1
Key: 4.67

A = COc1ccc(NC(=O)CCCCCCCSc2nnc(Cc3nn(C)c(=O)c4ccccc34)n2C)cc1
B = Cn1c(Cc2nn(C)c(=O)c3ccccc23)nnc1SCCCCCCCC(=O)NC12CC3CC(CC(C3)C1)C2
C = Cn1c(Cc2nn(C)c(=O)c3ccccc23)nnc1SCCCCCCCC(=O)Nc1ccc(N=[N+]=[N-])cc1
D = Cn1c(Cc2nn(C)c(=O)c3ccccc23)nnc1SCCCCCCCC(=O)Nc1ccc(Br)cc1Br
Exercise: Order by pKd, ascending. // ordering of labels required in reply
Key: B, C, A, D
